# SYSTEM_TESTED: SmPNP2 (purine nucleoside phosphorylase isoform 2) (Schistosoma mansoni)
# Construct: ORF of 287 amino acids, 6His-SUMO tag cleaved
# Sequence (A0A0U3AGT1 1-287): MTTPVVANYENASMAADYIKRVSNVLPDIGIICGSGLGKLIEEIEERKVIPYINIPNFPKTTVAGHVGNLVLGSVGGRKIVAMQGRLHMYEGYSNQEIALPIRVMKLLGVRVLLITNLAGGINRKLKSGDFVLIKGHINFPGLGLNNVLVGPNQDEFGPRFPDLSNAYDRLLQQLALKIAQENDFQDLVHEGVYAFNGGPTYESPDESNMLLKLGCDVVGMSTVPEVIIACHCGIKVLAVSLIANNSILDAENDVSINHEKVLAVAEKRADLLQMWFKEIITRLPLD
# ASSAY_COMMENT: ITC; crystal structure at […] Å
READOUT: pKd
// pKd: -log10(molar conc.)

Query: Param item = Nc1cc[nH]c(=O)n1 [CYT, cytosine] ; retrieve measured pKd.
Result: 4.57
